Field: half-life. Provide a value for each of the compounds that follow.
- System: human liver microsomes, metabolic stability half-life
- assay-notes: NCATS Human Liver Microsomal (HLM) Stability Profiling
- test-conditions: higher = more stable; screened at 1 µM (by protocol)
Answers are plain numbers, in min.

For orientation, consider the following solved cases.
smiles	readout-name	experimental-result
O=C(O)Cc1sc(-c2ccccc2)nc1-c1ccc(Cl)cc1	half-life	2.82
COc1ccc(-c2cn3cccnc3n2)cc1NC(=O)c1cc(C)cc(C)c1	half-life	20.7
C#CCN(Cc1cc2c(=O)[nH]c(C)nc2cc1Br)c1ccc(C(=O)NCc2cccnc2)cc1	half-life	9.7
Cc1ccc2c(c1)c1c(n2CCc2ccc(C)nc2)CCN(C)C1	half-life	8.67
CCN1CCN(C(=O)c2cc(-c3ccc(F)cc3)nc3c2cnn3C)CC1	half-life	99.2
Nc1ncnc2c1c(COc1cccc(Cl)c1)nn2C1CCOCC1	half-life	39.9
COc1ccc(CCNc2nc(SCc3ccccc3Cl)nc3ccccc23)cc1OC	half-life	7.1

Assign half-life to the following record: "Cc1nc2c3ccccc3nc(NNC(=O)CCC(=O)N3CCN(c4cccc(Cl)c4)CC3)n2n1"
10.9

###

- System: human liver microsomes, metabolic stability half-life
- assay-notes: NCATS Human Liver Microsomal (HLM) Stability Profiling
- test-conditions: higher = more stable; screened at 1 µM (by protocol)
- Method: Assay submitter (PI): Dr. Pranav Shah NIH Center for Advancing Translational Sciences Pharmacokinetic issues were the leading cause of drug attrition, accounting for approximately 40% of all cases before the turn of the century. […] The substrate depletion method, also called the in vitro t1/2 method was used to analyze test compounds. […] Sample quantification and analysis was performed using a previously described method (Shah et al., 2016, Siramshetty et al., 2020). […]
readout-name: half-life

Below, 2 molecules whose answers are already recorded.
molecule	readout-name	experimental-result
Cc1nnc(C(C)C)n1C1CC2CCC(C1)N2CCC(NC(=O)C1CCC(F)(F)CC1)c1ccccc1 (stereo not drawn)	half-life	> 2 h
O=C(O)c1cn(C2CC2)c2cc(Cl)c(F)cc2c1=O	half-life	> 2 h

Read the next record carefully.
For the molecule "COc1ccncc1C(=O)NC(=O)Nc1ccc(-c2ccccc2)c(C(F)(F)F)c1" , give its measured half-life value.
> 2 h

###

Answer each item with its documented log10(half-life).
- System: human liver microsomes, metabolic stability half-life
- assay-notes: NCATS Human Liver Microsomal (HLM) Stability Profiling
- test-conditions: higher = more stable; screened at 1 µM (by protocol)
- Description: Assay submitter (PI): Dr. Pranav Shah NIH Center for Advancing Translational Sciences Pharmacokinetic issues were the leading cause of drug attrition, accounting for approximately 40% of all cases before the turn of the century. […] The substrate depletion method, also called the in vitro t1/2 method was used to analyze test compounds. […] Sample quantification and analysis was performed using a previously described method (Shah et al., 2016, Siramshetty et al., 2020). […]
Record value = log10 of half-life given in min.

Please go through the list and note log10(half-life) for each compound.
1. CCCCCC(=O)O[C@]1(C(C)=O)CC[C@H]2[C@@H]3CCC4=CC(=O)CC[C@]4(C)[C@H]3CC[C@@]21C
2. CC(=O)c1ccc(C(=O)N(Cc2cccnc2)c2nc3c(C)c(C)ccc3s2)cc1
3. CC(Cc1cccc(C(F)(F)F)c1)NCCOC(=O)c1ccccc1 (centres undefined)
4. CC(Cc1ccccc1)NCc1ccccc1Cl (centres undefined)
5. CC(C)c1ccccc1OC(=O)NCCc1ccc2ccccc2c1
6. CCN[C@H]1C[C@H](C)S(=O)(=O)C2SC(S(N)(=O)=O)C=C21 (some centres undefined)
7. COc1ccc2c(CNCCc3ccccc3OC)c(C(=O)O)n(Cc3ccc(F)cc3Cl)c2c1
8. Cc1ccccc1C(=O)Nc1ccc(C(=O)N2CCCC(O)c3cc(Cl)ccc32)c(C)c1 (centres undefined)

1. 0.27
2. 0.80
3. -0.08
4. 1.03
5. 0.66
6. 2.02
7. 0.25
8. 1.14

Provide log10(half-life) values for the following items, in order.
1. COc1ccc(C2Sc3ccccc3N(CCN(C)C)C(=O)C2OC(C)=O)cc1 (centres undefined)
2. COC(=O)c1ccc2c(C(=Nc3ccc(N(C)C(=O)CN4CCN(C)CC4)cc3)c3ccccc3)c(O)[nH]c2c1

[1.83, 1.69]

Kindly give each listed record's log10(half-life).
1. CCN1CCN(C(=O)Cc2cccn2-c2ccc(F)cc2)CC1
2. C[C@]12CCC(=O)C=C1CC[C@@H]1[C@@H]2CC[C@@]2(C)[C@H]1CC[C@]2(O)C(=O)CO
3. CCc1ccc(CNC(=O)c2sc3ncccc3c2-n2c(C)ccc2C)cc1
4. Cc1ccc([S+](=O)([O-])NC2CCC(C)(C)CC2)cc1
5. O=C1CC2(CCCC2)CC(=O)N1CCNC[C@H]1COc2ccccc2O1

1. 2.06
2. 1.79
3. 0.28
4. 0.68
5. 0.92

Complete the entry with log10(half-life) for Nc1nc(NCC2CCC(CNS(=O)(=O)c3cccc4ccccc34)CC2)nc2ccccc12 (centres undefined)
0.13

###

- System: human liver microsomes, metabolic stability half-life
- assay-notes: NCATS Human Liver Microsomal (HLM) Stability Profiling
- test-conditions: higher = more stable; screened at 1 µM (by protocol)
readout-name: half-life (h)
One number for each entry, in h.

Hi! Can you tell me half-life for each of these molecules?
1. CN(C)S(=O)(=O)c1ccc(S(=O)(=O)N(Cc2ccco2)Cc2ccccc2Cl)cc1
2. CN1CC(=O)N/C1=N/C(=O)Nc1cccc(Cl)c1
3. Cc1cn(C[C@H](N)C(=O)O)c(=O)n(Cc2ccsc2C(=O)O)c1=O

[0.0554, 0.402, 0.886]

For each of the items listed, what is its half-life?
1. COP(N)(=O)SC (stereo not drawn)
2. C=Cc1ccc(Cn2c(SCC(=O)N3CCN(c4ccc(F)cc4)CC3)nc3ccccc32)cc1
3. CCc1ccc(NC(=O)N2CCN(c3nnc(C)c4c(C)n(-c5ccc(Cl)cc5)nc34)CC2)cc1

1: 0.859; 2: 0.0403; 3: 0.425

Would you be so kind as to report half-life for each listed record?
1. C[C@@H](N)[C@@H](O)c1ccccc1
2. COc1ccc2c(c1)CCCC2=O
3. O=c1cc(-c2ccc(O)cc2)oc2cc(O)cc(O)c12
4. Clc1ccc(N2CCN(c3ncnc4c3nc3n4CCCC3)CC2)cc1
5. COc1ccccc1N1CCN(c2csc3ccc(Cl)cc3c2=O)CC1

[1.54, 0.293, 0.314, 0.631, 0.262]

###

- Test system: human liver microsomes, metabolic stability half-life
- assay-notes: NCATS Human Liver Microsomal (HLM) Stability Profiling
- test-conditions: higher = more stable; screened at 1 µM (by protocol)
readout-name: half-life (min)
Answers are plain numbers, in min.

compound	half-life / min
Cc1cccc(NC(c2ccccc2F)c2ccc3ccc(C)nc3c2O)n1 (stereo not given)	14.1

Kindly review the next compound as well.
Recall the reported half-life of "Cc1cc(-c2ncc(CC(=O)Nc3ccc(-c4cnccn4)cn3)cc2C)ccn1" on human liver microsomes, metabolic stability half-life and write it down.
36.4

###

- Test system: human liver microsomes, metabolic stability half-life
- assay-notes: NCATS Human Liver Microsomal (HLM) Stability Profiling
- test-conditions: higher = more stable; screened at 1 µM (by protocol)
readout-name: half-life (min)
One number for each entry, in min.

Known results for compounds:
compound	unit-string	half-life
CC(C)(C)c1ccc(-c2nc3c(N4CCN(Cc5ccc6nccnc6c5)CC4)cccc3[nH]2)cc1	min	20.5
CCN1CCN(C(=O)c2cc(-c3ccccc3OC)c3nncn3n2)CC1	min	54.7

# batch: return half-life for each of the 6 compounds below
1. Oc1c(Cl)cc(Cl)c2cccnc12
2. Cc1cc(C)c(/C=C2\C(=O)Nc3ccccc32)[nH]1
3. Cc1cccc(/C=N/Nc2cc(N3CCOCC3)n3nc(-c4ccncc4)cc3n2)c1
4. OCCCNc1cc(-c2ccnc(Nc3cccc(Cl)c3)n2)ccn1
5. CC(CC1c2ccccc2CCc2ccccc21)CN(C)C (stereo unspecified)
6. CCCOC(C(=O)OC1CCN(C)CC1)(c1ccccc1)c1ccccc1

1: 25.2; 2: 11; 3: 23.1; 4: 24.5; 5: 87.7; 6: 11.3

Your task in this section: give half-life for each listed record.
1. O=C(Nc1cccc(-c2nc3ccccc3o2)c1)c1ccccc1Cl
2. CNC(=O)[C@H](Cc1ccccc1)NC(=O)[C@H](CC(C)C)[C@H](CSc1cccs1)C(=O)NO
3. CN1CCCC(CC2c3ccccc3Sc3ccccc32)C1 (stereo unspecified)
4. CCCCOCc1cc(CN2CCN(c3cccc(Cl)c3)CC2)c(O)c2ncccc12
5. CCCCN(CCCC)C(=O)CN1C[C@H](c2ccc3c(c2)OCO3)[C@@H](C(=O)O)[C@@H]1c1ccc(OC)cc1
6. N#Cc1cccc(C(=O)Nc2ccc3ncnc(N4CCCCC4)c3c2)c1
7. COc1ccc(-c2ccc3ncc4c(c3c2)n(-c2ccc(N3CCNCC3)c(C(F)(F)F)c2)c(=O)n4C)cn1
8. CCCCC(=O)O[C@]1(C(=O)CO)[C@@H](C)C[C@H]2[C@@H]3CCC4=CC(=O)C=C[C@]4(C)[C@@]3(F)[C@@H](O)C[C@@]21C

1: 9.1; 2: 110; 3: 48.7; 4: 10.3; 5: 72.6; 6: 12.4; 7: 36.3; 8: 4.35
